B1: library; numbered along this chain (parent)
chain: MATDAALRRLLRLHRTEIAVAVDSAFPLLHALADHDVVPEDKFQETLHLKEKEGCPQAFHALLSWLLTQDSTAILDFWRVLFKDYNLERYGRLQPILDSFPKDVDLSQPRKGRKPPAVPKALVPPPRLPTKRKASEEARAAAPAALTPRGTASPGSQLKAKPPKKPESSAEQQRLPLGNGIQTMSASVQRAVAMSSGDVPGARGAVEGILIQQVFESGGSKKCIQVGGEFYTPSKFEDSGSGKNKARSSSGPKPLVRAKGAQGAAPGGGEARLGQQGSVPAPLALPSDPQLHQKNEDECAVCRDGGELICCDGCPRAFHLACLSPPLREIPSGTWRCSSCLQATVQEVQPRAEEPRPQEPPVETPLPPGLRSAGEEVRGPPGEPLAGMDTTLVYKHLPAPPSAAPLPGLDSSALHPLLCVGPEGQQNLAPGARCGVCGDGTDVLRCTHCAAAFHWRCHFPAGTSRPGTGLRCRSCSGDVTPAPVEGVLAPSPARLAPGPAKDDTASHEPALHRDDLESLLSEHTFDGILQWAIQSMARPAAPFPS

# Variants of: B1
# Test: AIRE transcriptional activation functional score (insulin promoter-GFP; nonsense median 0, synonymous median 1) (normalised score); higher = higher AIRE activity (more reporter activation)
# Stated Conditions: with insulin promoter-GFP reporter in HEK293
Everything with AIRE transcriptional activation functional score lower than 1 is -1; everything else, including exactly 1, is 1.

Check the entry `L128F` : does AIRE transcriptional activation functional score equal or exceed 1?
1

Check the entry `P286H` : does AIRE transcriptional activation functional score equal or exceed 1?
-1

Check the entry `P384L` : does AIRE transcriptional activation functional score equal or exceed 1?
1

Check the entry `C475G` : does AIRE transcriptional activation functional score equal or exceed 1?
-1

Check the entry `G498N` : does AIRE transcriptional activation functional score equal or exceed 1?
-1

Check the entry `H319C` : does AIRE transcriptional activation functional score equal or exceed 1?
1

Check the entry `T504W` : does AIRE transcriptional activation functional score equal or exceed 1?
1

Check the entry `K501V` : does AIRE transcriptional activation functional score equal or exceed 1?
-1

Check the entry `Q426S` : does AIRE transcriptional activation functional score equal or exceed 1?
-1

Check the entry `P401D` : does AIRE transcriptional activation functional score equal or exceed 1?
1

Check the entry `S239T` : does AIRE transcriptional activation functional score equal or exceed 1?
1

Check the entry `F543M` : does AIRE transcriptional activation functional score equal or exceed 1?
-1

Check the entry `R257L` : does AIRE transcriptional activation functional score equal or exceed 1?
-1

Check the entry `A152W` : does AIRE transcriptional activation functional score equal or exceed 1?
1

Check the entry `V256S` : does AIRE transcriptional activation functional score equal or exceed 1?
1

Check the entry `E375T` : does AIRE transcriptional activation functional score equal or exceed 1?
-1

Check the entry `P361L` : does AIRE transcriptional activation functional score equal or exceed 1?
1

Check the entry `E53W` : does AIRE transcriptional activation functional score equal or exceed 1?
1

Check the entry `G155T` : does AIRE transcriptional activation functional score equal or exceed 1?
-1

Check the entry `E40H` : does AIRE transcriptional activation functional score equal or exceed 1?
-1

Check the entry `H415P` : does AIRE transcriptional activation functional score equal or exceed 1?
1

Check the entry `K164Q` : does AIRE transcriptional activation functional score equal or exceed 1?
-1

Check the entry `L13P` : does AIRE transcriptional activation functional score equal or exceed 1?
-1

Check the entry `K102E` : does AIRE transcriptional activation functional score equal or exceed 1?
1

Check the entry `R356C` : does AIRE transcriptional activation functional score equal or exceed 1?
1

Check the entry `L11I` : does AIRE transcriptional activation functional score equal or exceed 1?
-1

Check the entry `D503P` : does AIRE transcriptional activation functional score equal or exceed 1?
-1
